Each record here notes measured pEC50.
tested on: U251; assay: U251 Vacuolization Assay (24h); format: cell-based; conditions: Homo sapiens, U-251
pEC50: −log10 of the molar value.

Solved cases below.
[[record]]
smiles_record = "CC(=O)Nc1ccc(Nc2nc(N/N=C/c3c[nH]c4ccccc34)nc(N3CCOCC3)n2)cc1"
obs_value = "≥ 6.00"

[[record]]
smiles_record = "Cc1ccc(Nc2nc(N/N=C/c3ccccc3)nc(N3CCOCC3)n2)cc1"
obs_value = "≥ 6.00"

[[record]]
smiles_record = "Cc1cccc(Nc2nc(N/N=C/c3c[nH]c4ccccc34)nc(N3CCOCC3)n2)c1"
obs_value = "≥ 6.00"


Field pEC50 (U251), entry Cc1ccc(Nc2nc(N/N=C/c3c[nH]c4ccccc34)nc(N3C4CCC3COC4)n2)cc1 : 5.00 to 6.00

Field pEC50 (U251), entry Cc1[nH]c2ccccc2c1/C=N/Nc1nc(Nc2ccc([N+](=O)[O-])cc2)nc(N2CCCCCC2)n1 : < 4.30

Field pEC50 (U251), entry Cc1ccc(Nc2nc(NCCO)nc(N/N=C/c3c[nH]c4ccccc34)n2)cc1 : < 4.30

Field pEC50 (U251), entry Cc1ccc(Nc2nc(N/N=C\c3cc[nH]c3)nc(N3CCOCC3)n2)cc1 : 4.30 to 5.00

Field pEC50 (U251), entry Clc1cccc(Nc2nc(N/N=C/c3c[nH]c4ccccc34)nc(N3CCOCC3)n2)c1 : ≥ 6.00

---

experiment: Pharmacokinetic study of Example 3 in mouse (IV, IP); type: in vivo, C57 Mouse; details: C57, mouse, plasma, iv, 5 mg/kg, 5 mg/kg IV; individual animals 101M-103M
property: AUC(0-t)
Kindly format the answer as number then unit.

Per the records, this molecule ( Cc1ccc(Nc2nc(N/N=C/c3c[nH]c4ccccc34)cc(N3CCOCC3)n2)cc1 ) has AUC(0-t) equal to 5480 ng·h/mL

---

assay: Pharmacokinetic study of Example 1 in mouse (IV, IP, PO); format: in vivo, Male C57BL/6 Mouse; conditions: male, C57BL/6, mouse, plasma, iv, 5 mg/kg, IV 5 mg/kg; 0.250 h; mean
property: concentration at 0.25 h (ng/mL)
Dear colleague, please return just the value in ng/mL, with no unit written.

Per the records, this molecule ( Cc1ccc(Nc2nc(N/N=C/c3c[nH]c4ccccc34)nc(N3CCOCC3)n2)cc1 [Example 1] ) has concentration at 0.25 h equal to 1310

---

Test: Pharmacokinetic study of Example 1 in mouse (IV, IP, PO)
Format: in vivo, Male C57BL/6 Mouse
Conditions: male, C57BL/6, mouse, plasma, ip, 30 mg/kg, IP 30 mg/kg; individual mice M4-M6; read-out: AUC0-inf
Experimental: Species: Male C57BL/6 Mouse, fasted. PK/PD testing of the compound was performed in mice, after IP, IV, or oral administration.
property: AUC(0-inf) (ng·h/mL)
Dear colleague, please return just the value in ng·h/mL, with no unit written.

Per the records, this compound ( Cc1ccc(Nc2nc(N/N=C/c3c[nH]c4ccccc34)nc(N3CCOCC3)n2)cc1 ) has AUC(0-inf) equal to 3060

---

test: Pharmacokinetic study of Example 1 in mouse (IV, IP, PO); format: in vivo, Male C57BL/6 Mouse; settings: male, C57BL/6, mouse, plasma, ip, 30 mg/kg, IP 30 mg/kg; 2.00 h; individual mice M4-M6
property: concentration at 2 h (ng/mL)
Dear colleague, please return just the value in ng/mL, with no unit written.

Per the records, this compound ( Cc1ccc(Nc2nc(N/N=C/c3c[nH]c4ccccc34)nc(N3CCOCC3)n2)cc1 [Example 1] ) has concentration at 2 h equal to 367

---

test: Pharmacokinetic study of Example 1 in mouse (IV, IP, PO); format: in vivo, Male C57BL/6 Mouse; settings: male, C57BL/6, mouse, plasma, iv, 5 mg/kg, IV 5 mg/kg; 5 min; individual mice M1-M3
property: concentration at 5 min (ng/mL)
Dear colleague, please return just the value in ng/mL, with no unit written.

Per the records, this compound ( Cc1ccc(Nc2nc(N/N=C/c3c[nH]c4ccccc34)nc(N3CCOCC3)n2)cc1 ) has concentration at 5 min equal to 1300

---

assay: Pharmacokinetic study of Example 1 in mouse (IV, IP, PO); type: in vivo, Male C57BL/6 Mouse; conditions: male, C57BL/6, mouse, plasma, iv, 5 mg/kg, IV 5 mg/kg; mean; read-out: Vdss
property: Vd
Kindly format the answer as number then unit.

Per the records, this molecule ( Cc1ccc(Nc2nc(N/N=C/c3c[nH]c4ccccc34)nc(N3CCOCC3)n2)cc1 [Example 1] ) has Vd equal to 2.9 L/kg

---

experiment: Pharmacokinetic study of Example 1 in mouse (IV, IP, PO); type: in vivo, Male C57BL/6 Mouse; conditions: male, C57BL/6, mouse, plasma, iv, 5 mg/kg, IV 5 mg/kg; mean; read-out: T1/2 (converted)
property: half-life (min)
Dear colleague, please return just the value in min, with no unit written.

Per the records, this compound ( Cc1ccc(Nc2nc(N/N=C/c3c[nH]c4ccccc34)nc(N3CCOCC3)n2)cc1 [Example 1] ) has half-life equal to 40

---

assay: Pharmacokinetic study of Example 1 in mouse (IV, IP, PO); format: in vivo, Male C57BL/6 Mouse; conditions: male, C57BL/6, mouse, plasma, iv, 5 mg/kg, IV 5 mg/kg; individual mice M1-M3
property: AUC(0-t) (ng·h/mL)
Dear colleague, please return just the value in ng·h/mL, with no unit written.

Per the records, this molecule ( Cc1ccc(Nc2nc(N/N=C/c3c[nH]c4ccccc34)nc(N3CCOCC3)n2)cc1 ) has AUC(0-t) equal to 1370

---

test: Pharmacokinetic study of Example 3 in mouse (IV, IP); assay type: in vivo, C57 Mouse; conditions: C57, mouse, plasma, intravenous, 5 mg/kg, 5 mg/kg IV; 2.00 h; mean; read-out: Plasma concentrations
property: concentration at 2 h (ng/mL)
Dear colleague, please return just the value in ng/mL, with no unit written.

Per the records, this compound ( Cc1ccc(Nc2nc(N/N=C/c3c[nH]c4ccccc34)cc(N3CCOCC3)n2)cc1 ) has concentration at 2 h equal to 338

---

Experiment: Pharmacokinetic study of Example 3 in mouse (IV, IP)
Assay type: in vivo, C57 Mouse
Settings: C57, mouse, plasma, iv, 5 mg/kg, 5 mg/kg IV; mean; read-out: AUCINF_pred
Description: Species: C57 Mouse. Dose Route: IV&IP. Formulation Vehicle: IV&IP: 10% DMSO/30% PEG400/60% Saline. Dose Level: IV (5 mg/kg) and IP (30 mg/kg). Dose Volume: IV (5 mL/kg) and IP (10 mL/kg). Formulation concentrations: IV (1 mg/mL) and IP (3 mg/mL). LLOQ: IV (2 ng/mL) and IP (10 ng/mL).
property: AUC(0-inf) (ng·h/mL)
Dear colleague, please return just the value in ng·h/mL, with no unit written.

Per the records, this compound ( Cc1ccc(Nc2nc(N/N=C/c3c[nH]c4ccccc34)cc(N3CCOCC3)n2)cc1 [Example 3] ) has AUC(0-inf) equal to 4610

---

test: Pharmacokinetic study of Example 1 in mouse (IV, IP, PO); format: in vivo, Male C57BL/6 Mouse; conditions: male, C57BL/6, mouse, plasma, ip, 30 mg/kg, IP 30 mg/kg; individual mice M4-M6
property: AUC(0-t) (ng·h/mL)
Dear colleague, please return just the value in ng·h/mL, with no unit written.

Per the records, this molecule ( Cc1ccc(Nc2nc(N/N=C/c3c[nH]c4ccccc34)nc(N3CCOCC3)n2)cc1 ) has AUC(0-t) equal to 2520

---

test: Pharmacokinetic study of Example 3 in mouse (IV, IP); format: in vivo, C57 Mouse; conditions: C57, mouse, plasma, ip, 30 mg/kg, 30 mg/kg IP; individual animals 201M-203M
property: AUC(0-t) (ng·h/mL)
Dear colleague, please return just the value in ng·h/mL, with no unit written.

Per the records, this compound ( Cc1ccc(Nc2nc(N/N=C/c3c[nH]c4ccccc34)cc(N3CCOCC3)n2)cc1 [Example 3] ) has AUC(0-t) equal to 21900

---

test: Pharmacokinetic study of Example 1 in mouse (IV, IP, PO); type: in vivo, Male C57BL/6 Mouse; settings: male, C57BL/6, mouse, plasma, ip, 30 mg/kg, IP 30 mg/kg; 4.00 h; mean
property: concentration at 4 h (ng/mL)
Dear colleague, please return just the value in ng/mL, with no unit written.

Per the records, this compound ( Cc1ccc(Nc2nc(N/N=C/c3c[nH]c4ccccc34)nc(N3CCOCC3)n2)cc1 [Example 1] ) has concentration at 4 h equal to 175
